The entries below come with measured T/C values attached.
# Tested on: L1210 leukemia ip in BDF1 mice, survival T/C
# TEST SUMMARY: NCI In Vivo Anticancer Drug Screen. Data for tumor model L1210 Leukemia (intraperitoneal) in B6D2F1 (BDF1) mice
# ASSAY SETUP: endpoint: mean survival time; dose: 50.0 mg/kg/injection; schedule: Q04DX003 (ip); vehicle: saline; higher = longer survival
Toxic doses and inconclusive results are not listed.

IN: // returns reported T/C for input `Nc1ccc(C(=O)Nc2ccc(N(CCCl)CCCl)cc2)cc1`
OUT: 115 % of control

* * *

# Tested on: L1210 leukemia ip in BDF1 mice, survival T/C
# TEST SUMMARY: NCI In Vivo Anticancer Drug Screen. Data for tumor model L1210 Leukemia (intraperitoneal) in B6D2F1 (BDF1) mice
# ASSAY SETUP: endpoint: mean survival time; dose: 200.0 mg/kg/injection; schedule: Q04DX003 (ip); vehicle: saline; higher = longer survival
Inconclusive results and toxic doses are left out.
The entries below come with measured T/C values attached.

# annotated cases, reported T/C shown
- COMPOUND: "Nc1ncnn1C(=O)NCCCl"
  T/C: "101 % of control"
- COMPOUND: "Cn1c(=O)c2ccc(C(=O)O)cc2c(=O)n1C"
  T/C: "92 % of control"
- COMPOUND: "O=C(CCl)NCCO"
  T/C: "90 % of control"
- COMPOUND: "Oc1ccc2ccccc2c1CN1CCCCC1"
  T/C: "101 % of control"

IN: T/C of `O=S(=O)(O)c1cccc2cccc(Cl)c12` on L1210 leukemia ip in BDF1 mice, survival T/C?
OUT: 105 % of control

IN: T/C of `C=C(C)Cn1cnc2c1c(=O)n(C)c(=O)n2C` on L1210 leukemia ip in BDF1 mice, survival T/C?
OUT: 98 % of control

IN: T/C of `CC(=O)NCCN(C)C` on L1210 leukemia ip in BDF1 mice, survival T/C?
OUT: 101 % of control

* * *

# Tested on: L1210 leukemia ip in BDF1 mice, survival T/C
# TEST SUMMARY: NCI In Vivo Anticancer Drug Screen. Data for tumor model L1210 Leukemia (intraperitoneal) in B6D2F1 (BDF1) mice
# ASSAY SETUP: endpoint: mean survival time; dose: 100.0 mg/kg/injection; schedule: Q01DX001 (ip); vehicle: saline; higher = longer survival
Toxic doses and inconclusive results are not listed.
The entries below come with measured T/C values attached.

# annotated cases, reported T/C shown
- COMPOUND: "CC1C(=O)OC2CC[N+]3([O-])CC=C(COC(=O)C(C)(O)C1(C)O)C23 (configuration not stated)"
  STUDY SYSTEM: "L1210 leukemia ip in BDF1 mice, survival T/C"
  TEST VALUE: "96 % of control"
- COMPOUND: "CC1C(C)C23CCC12C(=O)C(O)C12CCC1(C(O)C3=O)C(C)C2C (configuration not stated)"
  STUDY SYSTEM: "L1210 leukemia ip in BDF1 mice, survival T/C"
  TEST VALUE: "109 % of control"
- COMPOUND: "CCOc1ccc2ccccc2c1"
  STUDY SYSTEM: "L1210 leukemia ip in BDF1 mice, survival T/C"
  TEST VALUE: "102 % of control"

IN: // returns reported T/C for input CCCCCCCCCCCCC1C2CCCCC2C2CCCCC12 (configuration not stated)
OUT: 92 % of control

IN: // returns reported T/C for input `CC(=O)Nc1ccc(Cc2ccc(N=Cc3ccccc3)cc2)cc1`
OUT: 101 % of control

IN: // returns reported T/C for input `COCC(=O)c1ccccc1`
OUT: 98 % of control

IN: // returns reported T/C for input `Cc1ncc(C(N)=O)c2c1OC(C)(C)OC2`
OUT: 97 % of control

IN: // returns reported T/C for input `Cc1cc2oc(=O)c3c(c2c(O)c1CN1CCN(C)CC1)CCCC3`
OUT: 95 % of control

IN: // returns reported T/C for input `O=C(Nc1ccc(F)cc1)c1ccc(Cl)cc1Cl`
OUT: 93 % of control

IN: // returns reported T/C for input CCCCN(CCCC)C(=O)CC(C)(O)c1ccccc1 (configuration not stated)
OUT: 107 % of control

IN: // returns reported T/C for input `CCCCn1cnc2c(=O)n(C)c(=O)n(C)c21`
OUT: 96 % of control

IN: // returns reported T/C for input `COc1cc2c(cc1OC)C(Cc1cc3c(cc1[N+](=O)[O-])OCO3)=NCC2`
OUT: 96 % of control

* * *

# Tested on: L1210 leukemia ip in BDF1 mice, survival T/C
# TEST SUMMARY: NCI In Vivo Anticancer Drug Screen. Data for tumor model L1210 Leukemia (intraperitoneal) in B6D2F1 (BDF1) mice
# ASSAY SETUP: endpoint: mean survival time; dose: 200.0 mg/kg/injection; schedule: Q04DX002 (ip); vehicle: Klucel (hydroxypropylcellulose) (HPC); higher = longer survival
Toxic doses and inconclusive results are not listed.
READOUT LABEL: T/C

- MOLECULE: "CCOc1ccc(N=Nc2ccc(N)cc2N)cc1"
  TEST VALUE: "101 % of control"
- MOLECULE: "O=C(O)c1cc([N+](=O)[O-])ccc1Cl"
  TEST VALUE: "103 % of control"
- MOLECULE: "O=C(Nc1ccc(C(=O)O)cc1)Nc1cccc(F)c1"
  TEST VALUE: "98 % of control"
- MOLECULE: "CCCCCCCCCCCCCCCC[N+]1(CC)CCOCC1"
  TEST VALUE: "93 % of control"
- MOLECULE: "C/C=C\\C=C\\C(=O)O"
  TEST VALUE: "94 % of control"

IN: // returns reported T/C for input O=C(O)c1c2c(nc3ccccc13)CCC(C(=O)O)C2 (stereo not given)
OUT: 95 % of control

IN: // returns reported T/C for input `O=C1OC(c2ccccc2)=N/C1=C\c1ccc([N+](=O)[O-])cc1`
OUT: 89 % of control

IN: // returns reported T/C for input CC(=O)OC1CC2(CO2)C2CC=C(C)C2C2OC(=O)C(C)C12 (stereo not given)
OUT: 100 % of control

IN: // returns reported T/C for input O=C(c1ccco1)C(O)c1ccco1 (stereo not given)
OUT: 104 % of control

IN: // returns reported T/C for input `O=C(O)c1cc(Br)c(Cl)c(Br)c1`
OUT: 100 % of control

* * *

# System: L1210 leukemia ip in BDF1 mice, survival T/C
# TEST SUMMARY: NCI In Vivo Anticancer Drug Screen. Data for tumor model L1210 Leukemia (intraperitoneal) in B6D2F1 (BDF1) mice
# ASSAY SETUP: endpoint: mean survival time; dose: 200.0 mg/kg/injection; schedule: Q01DX001 (ip); vehicle: saline; higher = longer survival
Toxic doses and inconclusive results are not listed.
READOUT LABEL: T/C

- COMPOUND: "CC1NNC(=O)c2ccccc21 (stereo unspecified)"
  READOUT LABEL: "T/C"
  TEST VALUE: "96 % of control"
- COMPOUND: "COC(=O)/C=C(\\C)Nc1ccc([N+](=O)[O-])cc1"
  READOUT LABEL: "T/C"
  TEST VALUE: "93 % of control"
- COMPOUND: "COC(OC)c1cc(=O)[nH]c(N)n1"
  READOUT LABEL: "T/C"
  TEST VALUE: "108 % of control"

IN: // returns reported T/C for input O=C(OCC1OC(n2ccc(=S)[nH]c2=O)C(OC(=O)c2ccccc2)C1OC(=O)c1ccccc1)c1ccccc1 (stereo unspecified)
OUT: 101 % of control

IN: // returns reported T/C for input CC(=O)NC1CCC(NC(C)=O)CC1 (stereo unspecified)
OUT: 97 % of control

IN: // returns reported T/C for input O=C1CCCCC1Nc1ccc([N+](=O)[O-])cc1 (stereo unspecified)
OUT: 93 % of control

IN: // returns reported T/C for input `CCOc1ccc2ccccc2c1`
OUT: 98 % of control

* * *

# Tested on: L1210 leukemia ip in BDF1 mice, survival T/C
# TEST SUMMARY: NCI In Vivo Anticancer Drug Screen. Data for tumor model L1210 Leukemia (intraperitoneal) in B6D2F1 (BDF1) mice
# ASSAY SETUP: endpoint: mean survival time; dose: 5.0 mg/kg/injection; schedule: Q01DX009 (ip); vehicle: saline
Toxic doses and inconclusive results are not listed. Rule as the data show it: active = T/C of 150% or more; inactive = T/C below 125%.
# output must be one of active, inactive

For orientation, consider the following solved cases.
- COMPOUND: "Cc1nc(N)nc(N)c1-c1ccc(Cl)c(Cl)c1"
  GROUP LABEL: "inactive"
- COMPOUND: "COC1N(C2CC(O)C(CO)O2)C(=O)NC(=O)C1(F)Br (centres undefined)"
  GROUP LABEL: "inactive"

IN: Which outcome did this test record for the compound `O=C(CCl)c1cnc2ccccc2n1` ?
OUT: inactive

IN: Which outcome did this test record for the compound `Cn1cnc([N+](=O)[O-])c1Sc1nc(N)nc2nc[nH]c12` ?
OUT: active

Origin of values: PubChem BioAssay AID248
